Where these numbers come from: ChEMBL document CHEMBL1122281

Tested on: Litomosoides carinii
Assay: Antifilarial activity against Litomosoides carinii infections in the Jird at dose 12 mg/kg administered orally
Format: functional
Conditions: route oral
OUTCOME_MEASURE: Reduction of live worms
Please state the number and follow it with the unit.

query: Reported Reduction of live worms, compound `CCN(CC)Cc1cc(Nc2cc(C(F)(F)F)nc(/N=C(\N)Nc3ccc(Cl)cc3)n2)ccc1O` : ____
result: 100%

query: Find the recorded Reduction of live worms belonging to `COc1ccc(Nc2cc(C(F)(F)F)nc(/N=C(\N)Nc3ccc(Cl)cc3)n2)cc1CN1CCCC1` and report it.
result: 100%

query: Looking for the measured Reduction of live worms of `CCN(CC)Cc1cc(Nc2cc(C(F)(F)F)nc(/N=C(\N)Nc3ccccc3)n2)ccc1O` , can you help?
result: 47%

query: I'd like to know its Reduction of live worms. The compound in question is `CCN(CC)Cc1cc(Nc2cc(C(F)(F)F)nc(/N=C(\N)Nc3ccccc3)n2)ccc1OC`
result: 38%

query: Please give the measured Reduction of live worms for this compound: `N/C(=N\c1ccc(Cl)cc1)Nc1nc(Nc2ccc(O)c(CN3CCCC3)c2)cc(C(F)(F)F)n1`
result: 87%

query: # get_value(readout='Reduction of live worms', item= `CN1CCN(Cc2cc(Nc3cc(C(F)(F)F)nc(/N=C(\N)Nc4ccc(Cl)cc4)n3)ccc2O)CC1` )
result: 38%

query: Look up Reduction of live worms: `CN1CCN(Cc2cc(Nc3cc(C(F)(F)F)nc(/N=C(\N)Nc4ccccc4)n3)ccc2O)CC1`
result: 0%
